biological target: Acetylcholinesterase (Homo sapiens); experiment: Inhibition of human recombinant AChE […] by Ellman's assay
Sequence (P22303 whole entry): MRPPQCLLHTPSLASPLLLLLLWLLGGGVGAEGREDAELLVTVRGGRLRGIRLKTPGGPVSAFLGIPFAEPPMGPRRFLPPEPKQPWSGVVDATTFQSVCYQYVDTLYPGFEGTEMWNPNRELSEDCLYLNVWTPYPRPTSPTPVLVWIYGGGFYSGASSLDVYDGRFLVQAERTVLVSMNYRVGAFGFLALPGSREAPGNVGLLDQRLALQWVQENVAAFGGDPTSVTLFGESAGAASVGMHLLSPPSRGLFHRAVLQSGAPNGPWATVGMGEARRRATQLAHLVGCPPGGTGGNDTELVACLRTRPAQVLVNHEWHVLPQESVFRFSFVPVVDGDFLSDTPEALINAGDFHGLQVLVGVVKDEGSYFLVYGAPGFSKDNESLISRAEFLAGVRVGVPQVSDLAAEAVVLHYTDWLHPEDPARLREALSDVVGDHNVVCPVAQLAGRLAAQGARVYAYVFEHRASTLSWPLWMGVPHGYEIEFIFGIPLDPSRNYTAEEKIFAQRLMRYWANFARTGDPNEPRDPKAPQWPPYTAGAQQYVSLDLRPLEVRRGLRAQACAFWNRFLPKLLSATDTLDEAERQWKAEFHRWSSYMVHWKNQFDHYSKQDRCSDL
Hi there, I'd appreciate the recorded IC50 for every entry that follows.
Answers are plain numbers, in µM.

The following molecules have reported results that may help.
MOLECULE: CCCSc1nc2nc3c(c(N)c2s1)C1CC(CC)=CC(C3)C1 (racemic)
TARGET ENTITY: Acetylcholinesterase (Homo sapiens)
UNITS SYMBOL: µM
IC50: 7.27
--
MOLECULE: CCCSc1nc2nc3c(c(N)c2s1)C1CC(C)=CC(C3)C1 (racemic)
TARGET ENTITY: Acetylcholinesterase (Homo sapiens)
UNITS SYMBOL: µM
IC50: 7.69
--
MOLECULE: CC1=CC2Cc3nc4ncccc4c(N)c3C(C1)C2 (racemic)
TARGET ENTITY: Acetylcholinesterase (Homo sapiens)
UNITS SYMBOL: µM
IC50: 0.81
--
MOLECULE: CCC1=CC2Cc3nc4cnccc4c(N)c3C(C1)C2 (racemic)
TARGET ENTITY: Acetylcholinesterase (Homo sapiens)
UNITS SYMBOL: µM
IC50: 0.664
--
MOLECULE: COc1cc2nc3c(c(N)c2cc1OC)C1CC(C)=CC(C3)C1 (racemic)
TARGET ENTITY: Acetylcholinesterase (Homo sapiens)
UNITS SYMBOL: µM
IC50: 11.7

Hi team, please reply with IC50 for each item in this list.
1. CCC1=CC2Cc3nc4cc(Cl)ccc4c(Cl)c3C(C1)C2 (racemic)
2. CCC1=CC2Cc3nc4cc(Cl)ccc4c(NCCO)c3C(C1)C2 (racemic)

1: 19.2; 2: 0.00675

Provide reported IC50 for each item, in the same order as listed.
1. CCC1=CC2Cc3nc4cc(Cl)ccc4c(N)c3[C@@H](C1)C2
2. CCC1=CC2Cc3nc4oc(C)c(C)c4c(N)c3C(C1)C2 (racemic)

[0.0011, 6.45]
